Target: Plasmodium vivax (Pv) NMT (Plasmodium vivax (strain Salvador I))
Sequence (A5K1A2 1-410): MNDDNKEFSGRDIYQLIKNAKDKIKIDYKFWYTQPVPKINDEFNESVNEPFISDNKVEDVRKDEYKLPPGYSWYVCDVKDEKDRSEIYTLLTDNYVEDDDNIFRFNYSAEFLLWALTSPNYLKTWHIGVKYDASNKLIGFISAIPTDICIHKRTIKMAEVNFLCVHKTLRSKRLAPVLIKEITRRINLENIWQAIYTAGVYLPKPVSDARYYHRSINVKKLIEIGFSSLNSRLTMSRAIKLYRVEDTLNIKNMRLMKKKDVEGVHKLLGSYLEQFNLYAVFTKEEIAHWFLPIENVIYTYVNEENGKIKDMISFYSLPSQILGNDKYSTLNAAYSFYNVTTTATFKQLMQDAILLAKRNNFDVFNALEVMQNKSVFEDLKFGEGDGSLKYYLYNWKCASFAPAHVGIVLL
Experiment: biochemical
property_measured: IC50 (nM)
Express it in nM; write the number only.

In the examples that follow, each entry is paired with its recorded IC50.
structure_smiles_string=C[C@@H]1CN(c2ncc(F)c(N3CC(C(=O)NC(C)(C)c4cnc5ccccn45)C3)n2)C[C@@H](C)N1C study_system="Plasmodium vivax (Pv) NMT (Plasmodium vivax (strain Salvador I))" assay_value=59
structure_smiles_string=CN(Cc1cnc2ccccn12)C(=O)C1CN(c2nc(N3CCCNCC3)ncc2Cl)C1 study_system="Plasmodium vivax (Pv) NMT (Plasmodium vivax (strain Salvador I))" assay_value=140
structure_smiles_string=CN1CCN(c2ncc(Cl)c(N3CCC(C(=O)NC(C)(C)c4cnc5ccccn45)CC3)n2)CC1 study_system="Plasmodium vivax (Pv) NMT (Plasmodium vivax (strain Salvador I))" assay_value=74

Note: attention shifts to another entry.
Query: Entry CN1CCCN(c2ncc(Cl)c(N3CC(C(=O)NC(C)(C)c4cnc5ccccn45)C3)n2)CC1 : reported IC50 = ?
Result: 2.2

====

Reported pEC50 values for a set of molecules
System: Plasmodium falciparum 3D7
Experiment: SYBR Green assay, Plasmodium falciparum strain 3D7
Assay type: cell-based
Conditions: P. falciparum strain 3D7, 96 h incubation, read-out: Pf EC50 strain 3D7
Recall that pEC50 is obtained by taking minus log10 of the concentration measured in molar.

In the examples that follow, each entry is paired with its recorded pEC50.
molecule=COc1cnc(N2C[C@H](C)N(C)[C@@H](C)C2)nc1N1CC(C(=O)NC(C)(C)c2cnc3ccccn23)C1 assay_value=6.36
molecule=C[C@@H]1CN(c2ncc(Cl)c(N3CC(C(=O)NC(C)(C)c4cnc5ccccn45)C3)n2)CCN1 assay_value=8.20
molecule="CC1CN(c2ncc(F)c(N3CC(C(=O)NC(C)(C)c4cnc5ccccn45)C3)n2)C[C@@H](C)N1 (stereo partly shown)" assay_value=6.85

Query: Give recorded pEC50 with Plasmodium falciparum 3D7 for the following molecule: C[C@@H]1CN(c2ncc(Cl)c(N3CC(C(=O)NC(C)(C)c4cnc5ccccn45)C3)n2)[C@H](C)CN1C
Result: 7.18

====

Reported half-life at 1 µM values for a set of compounds
Experiment: in vitro
Conditions: male, Sprague-Dawley, rat, pooled cryopreserved rat hepatocytes, pH 7.4

In the examples that follow, each entry is paired with its recorded half-life at 1 µM.
structure_smiles_string=C[C@@H]1CN(c2ncc(F)c(N3CC(C(=O)NC(C)(C)c4cnc5ccccn45)C3)n2)C[C@H](C)N1 assay_value="> 3 h"
structure_smiles_string=C[C@@H]1CN(c2ncc(Cl)c(N3CC(C(=O)NC(C)(C)c4cnc5ccccn45)C3)n2)C[C@H](C)N1C assay_value="> 3 h"

Note: attention shifts to another entry.
Query: Entry CN1CCN(c2ncc(F)c(N3CC(C(=O)NC(C)(C)c4cnc5c(F)cccn45)C3)n2)CC1 : reported half-life at 1 µM = ?
Result: > 3 h

====

System: Plasmodium falciparum 3D7
Assay: SYBR Green assay, Plasmodium falciparum strain 3D7
Type: cell-based
Details: P. falciparum strain 3D7, 96 h incubation, read-out: Pf EC50 strain 3D7
Reported EC50 values for a set of compounds
Express it in µM; write the number only.

compound=CN1CCCN(c2ncc(Cl)c(N3CC(C(=O)NC(C)(C)c4cnc5ccccn45)C3)n2)CC1 study_system="Plasmodium falciparum 3D7" property_measured=EC50 assay_value=0.049

Note: attention shifts to another entry.
Query: Give recorded EC50 with Plasmodium falciparum 3D7 for the following compound: CC1CN(c2ncc(Cl)c(N3CC(C(=O)NC(C)(C)c4cnc5ccccn45)C3)n2)C[C@H](C)N1 (stereo partly shown)
Result: 0.065
